The measured values listed here are drawn from patent US9067949B2.

pKi overview
- TARGET: UniProt P50406
- ASSAY EXPLANATION: 5-HT6 radioligand binding assay (SPA format, [N-methyl-3H]-LSD)
- MEASUREMENT CONDITIONS: human 5-HT6 receptor membranes, 10 nM [N-methyl-3H]-LSD; Ki by Cheng-Prusoff; read-out: human 5HT6 Ki
pKi: −log10 of the molar value. Counter-ions that a name gives are not always drawn.
OUTCOME MEASURE: pKi

>>> assay_result("O=S(=O)(c1ccccc1)c1cc(OC(F)F)c2oc3c(c2c1)CNCC3 [Example 216]")
9.48
>>> assay_result("COc1cc([S+]([O-])c2ccccc2)cc2c3c(oc12)CCNC3 (stereo not shown) [Example 234]")
8.13
>>> assay_result("Cc1cc(S(=O)(=O)c2cc(Cl)cc(Cl)c2)cc2c3c(oc12)CCNC3 [Example 198]")
8.92
>>> assay_result("COc1cc(S(=O)(=O)c2cc(F)cc(F)c2)cc2c3c(oc12)CCNC3 [Example 186]")
9.48
>>> assay_result("Cn1cc(-c2cc(S(=O)(=O)c3ccccc3)cc3c4c(oc23)CCNC4)cn1 [Example 225]")
7.96
>>> assay_result("O=S(=O)(c1cncc(C(F)(F)F)c1)c1cc(Cl)c2oc3c(c2c1)CNCC3 [Example 121]")
7.54
>>> assay_result("COc1cc(S(=O)(=O)c2ccsc2)cc2c3c(oc12)CCNC3 [Example 187]")
9.57
>>> assay_result("Cc1cc(S(=O)(=O)c2ccc(Cl)cc2)cc2c3c(oc12)CCNC3 [Example 196]")
8.96
>>> assay_result("O=S(=O)(c1ccc(C2CCOC2)cc1)c1cc(Cl)c2oc3c(c2c1)CNCC3 (stereo not shown) [Example 154]")
8.25
>>> assay_result("COc1cc(S(=O)(=O)c2ccc(C(C)(C)O)cc2)cc2c3c(oc12)CCNC3 [Example 176]")
9.13
>>> assay_result("COc1cc(S(=O)(=O)c2ccc(Cl)cc2)cc2c3c(oc12)CCNC3 [Example 189]")
9.55
>>> assay_result("O=S(=O)(c1ccccc1)c1cc(Cl)c2oc3c(c2c1)CN(CCO)CC3 [Example 146]")
8.80
>>> assay_result("Cc1cc(S(=O)(=O)c2ccccc2)cc2c3c(oc12)CCNC3 [Example 53, hydrochloride]")
9.66
>>> assay_result("Cl.Clc1cc(Sc2ccccc2)cc2c3c(oc12)CCNC3 [Example 91, hydrochloride]")
7.92
>>> assay_result("O=S(=O)(c1cccc(C(F)(F)F)c1)c1cc(Cl)c2oc3c(c2c1)CNCC3 [Example 45, hydrochloride]")
9.32
>>> assay_result("Cl.Nc1ccc(S(=O)(=O)c2ccc3oc4c(c3c2)CNCC4)cc1 [Example 36, hydrochloride]")
7.40
>>> assay_result("O=S(=O)(c1ccccc1)c1cc(CO)c2oc3c(c2c1)CNCC3 [Example 74, hydrochloride]")
7.89
>>> assay_result("CN1CCc2oc3ccc(S(=O)(=O)c4ccccc4)cc3c2C1.Cl [Example 27, hydrochloride]")
8.19
>>> assay_result("CC(O)c1cccc(S(=O)(=O)c2cc(Cl)c3oc4c(c3c2)CNCC4)c1 (stereo not shown) [Example 136]")
8.52
>>> assay_result("Cl.O=S(=O)(c1cccc(C(F)(F)F)c1)c1ccc2c3c(oc2c1)CC1CCC3N1 (stereo not shown) [Example 64, hydrochloride]")
6.94
>>> assay_result("COc1cc(Sc2ccccc2)cc2c3c(oc12)CCNC3 [Example 230]")
8.72
>>> assay_result("Cl.O=S(=O)(c1ccccc1)c1ccc2c3c(oc2c1)CCCNC3 [Example 68, hydrochloride]")
6.88
>>> assay_result("Cl.O=S(=O)(c1cccc(Cl)c1)c1ccc2c3c(oc2c1)CCNC3 [Example 62, hydrochloride]")
8.77
>>> assay_result("Cl.O=S(=O)(c1ccc2oc3c(c2c1)CNCC3)n1ccc2ccc(F)cc21 [Example 42, hydrochloride]")
8.82
>>> assay_result("COc1cc(Oc2ccccc2)cc2c3c(oc12)CCNC3 [Example 237]")
6.19
>>> assay_result("O=S(=O)(c1ccccc1)c1cc(N2CCOCC2)c2oc3c(c2c1)CNCC3 [Example 228]")
7.33
>>> assay_result("CC(C)(O)COc1cc(S(=O)(=O)c2ccccc2)cc2c3c(oc12)CCNC3 [Example 218]")
6.29
>>> assay_result("C[C@@H](O)c1cccc(S(=O)(=O)c2cc(Cl)c3oc4c(c3c2)CNCC4)c1 [Example 139]")
8.57
>>> assay_result("O=S(=O)(c1ccc(-n2cccn2)cc1)c1cc(Cl)c2oc3c(c2c1)CNCC3 [Example 104]")
7.59
>>> assay_result("COc1cc(S(=O)(=O)c2ccccc2CO)cc2c3c(oc12)CCNC3 [Example 159]")
8.82
>>> assay_result("Cl.O=S(=O)(c1ccccc1)c1ccc2oc3c(c2c1)CNCCC3 [Example 69, hydrochloride]")
6.24
>>> assay_result("O=S(=O)(c1ccccc1)c1cc(Cl)c2oc3c(c2c1)CCNCC3 [Example 90, hydrochloride]")
9.60
>>> assay_result("Cl.O=S(=O)(c1ccccc1)c1ccc2c3c(oc2c1)CCNC3 [Example 60, hydrochloride]")
8.01
>>> assay_result("COc1cc(S(=O)(=O)c2ccccc2F)cc2c3c(oc12)CCNC3 [Example 163]")
9.72

###

- TARGET: human 5-HT6 receptor (Homo sapiens (Human), UniProt P50406)
- Sequence (P50406 whole entry): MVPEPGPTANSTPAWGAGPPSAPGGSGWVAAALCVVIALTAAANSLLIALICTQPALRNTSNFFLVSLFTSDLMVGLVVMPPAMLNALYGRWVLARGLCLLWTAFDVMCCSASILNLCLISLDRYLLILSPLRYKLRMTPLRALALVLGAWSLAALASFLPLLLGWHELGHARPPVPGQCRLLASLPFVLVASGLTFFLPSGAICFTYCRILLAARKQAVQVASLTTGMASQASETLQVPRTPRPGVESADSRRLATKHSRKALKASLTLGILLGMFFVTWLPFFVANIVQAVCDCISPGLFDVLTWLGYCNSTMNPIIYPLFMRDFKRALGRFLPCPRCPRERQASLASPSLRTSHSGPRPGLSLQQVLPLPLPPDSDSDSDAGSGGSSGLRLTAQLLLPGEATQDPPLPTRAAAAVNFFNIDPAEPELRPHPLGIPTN
- ASSAY EXPLANATION: 5-HT6 radioligand binding assay (SPA format, [N-methyl-3H]-LSD)
- MEASUREMENT CONDITIONS: human 5-HT6 receptor membranes, 10 nM [N-methyl-3H]-LSD; Ki by Cheng-Prusoff; read-out: human 5HT6 Ki
pKi: −log10 of the molar value. Structures can show the parent of a compound that is named as a salt.
OUTCOME MEASURE: pKi

>>> assay_result("Cc1cc(S(=O)(=O)c2cccc(Cl)c2)cc2c3c(oc12)CCNC3 [Example 195]")
9.55
>>> assay_result("CN(C)C(=O)C1NCCc2oc3c(Cl)cc(S(=O)(=O)c4ccccc4)cc3c21 (centres unmarked) [Example 88, hydrochloride]")
6.60
>>> assay_result("COc1cc(Cc2ccccc2)cc2c3c(oc12)CCNC3.Cl [Example 96, hydrochloride]")
8.31
>>> assay_result("O=S(=O)(c1ccc(F)c(F)c1)c1cc(Cl)c2oc3c(c2c1)CNCC3 [Example 127]")
8.40
>>> assay_result("O=S(=O)(c1ccc(OC(F)F)cc1)c1cc(Cl)c2oc3c(c2c1)CNCC3 [Example 113]")
8.66
>>> assay_result("O=S(=O)(c1ccccc1)c1cc(Cn2ccnc2)c2oc3c(c2c1)CNCC3 [Example 229]")
7.19
>>> assay_result("O=S(=O)(c1cccc(-n2cccn2)c1)c1cc(Cl)c2oc3c(c2c1)CNCC3 [Example 103]")
8.66
>>> assay_result("O=S(=O)(c1cncc(Cl)c1)c1cc(Cl)c2oc3c(c2c1)CNCC3 [Example 119]")
7.70
>>> assay_result("Cc1cn(S(=O)(=O)c2ccc3oc4c(c3c2)CNCC4)c2ccccc12.Cl [Example 43, hydrochloride]")
9.38
>>> assay_result("Cc1cc(S(=O)(=O)c2ccc(F)cc2)cc2c3c(oc12)CCNC3 [Example 203]")
8.82
>>> assay_result("COCc1ccc(S(=O)(=O)c2cc(Cl)c3oc4c(c3c2)CNCC4)cc1 [Example 109]")
7.85
>>> assay_result("Cl.O=S(=O)(c1ccccc1)c1cc(CCO)c2oc3c(c2c1)CNCC3 [Example 79, hydrochloride]")
8.37
>>> assay_result("COc1cc(S(=O)(=O)c2ccc([C@@H](C)O)cc2)cc2c3c(oc12)CCNC3 [Example 172]")
8.72
>>> assay_result("O=S(=O)(c1ccccc1)c1cc(-n2cncn2)c2oc3c(c2c1)CNCC3 [Example 226]")
6.97
>>> assay_result("O=S(=O)(c1ccc(F)cc1)c1cc(Cl)c2oc3c(c2c1)CNCC3 [Example 128]")
8.52
>>> assay_result("O=S(=O)(c1ccc2[nH]ccc2c1)c1cc(Cl)c2oc3c(c2c1)CNCC3 [Example 143]")
9.89
>>> assay_result("Cl.Cn1cc(S(=O)(=O)c2cc(Cl)c3oc4c(c3c2)CNCC4)c2ccccc21 [Example 50]")
9.77

###

// log10 Ki lookup, one value per entry
- TARGET: human 5-HT6 receptor (Homo sapiens (Human), UniProt P50406)
- ASSAY EXPLANATION: 5-HT6 radioligand binding assay (SPA format, [N-methyl-3H]-LSD)
- MEASUREMENT CONDITIONS: human 5-HT6 receptor membranes, 10 nM [N-methyl-3H]-LSD; Ki by Cheng-Prusoff; read-out: human 5HT6 Ki
OUTCOME MEASURE: log10 Ki (log10 of the value in nM)

>>> assay_result("Cc1cc(S(=O)(=O)c2ccc(F)c(F)c2)cc2c3c(oc12)CCNC3 [Example 199]")
0.30
>>> assay_result("Cn1cc(S(=O)(=O)c2cc(C#N)c3oc4c(c3c2)CNCC4)c2ccccc21 [Example 211]")
-0.40
>>> assay_result("O=S(=O)(c1ccccc1)c1cc(Cl)c2oc3c(c2c1)CN(c1cccnc1)CC3 [Example 115]")
2.09
>>> assay_result("Cl.O=S(=O)(c1cc(F)cc(F)c1)c1ccc2oc3c(c2c1)CNCC3 [Example 37, hydrochloride]")
2.53
>>> assay_result("Cl.O=S(=O)(c1ccc(C(F)(F)F)cc1)c1cc(Cl)c2oc3c(c2c1)CNCC3 [Example 111]")
0.52
>>> assay_result("CC1CNCc2c1oc1c(Cl)cc(S(=O)(=O)c3ccccc3)cc21.Cl (stereo not shown) [Example 89, hydrochloride]")
2.04
>>> assay_result("O=S(=O)(c1cc(Cl)c2oc3c(c2c1)CNCC3)c1ccccc1OC(F)(F)F [Example 102]")
0.52
>>> assay_result("O=S(=O)(c1cc(Cl)c2oc3c(c2c1)CNCC3)c1ccccc1C(F)(F)F [Example 153]")
0.79
>>> assay_result("Cl.O=S(=O)(c1ccc(F)cc1)c1ccc2oc3c(c2c1)CNCC3 [Example 31, hydrochloride]")
1.63
>>> assay_result("O=S(=O)(c1ccccc1)c1cc(OC(F)(F)F)c2oc3c(c2c1)CNCC3 [Example 214]")
-0.06
>>> assay_result("COc1cc(S(=O)(=O)c2ccc(F)c(F)c2)cc2c3c(oc12)CCNC3 [Example 161]")
-0.49
>>> assay_result("Cl.O=S(=O)(c1cccc(Cl)c1)c1ccc2oc3c(c2c1)CNCC3 [Example 30, hydrochloride]")
0.79
>>> assay_result("COc1cc(S(=O)(=O)c2cccc(C(C)O)c2)cc2c3c(oc12)CCNC3 (stereo not shown) [Example 173]")
-0.22
